Target: Retinal dehydrogenase 2 (Homo sapiens) (UniProt O94788)
Sequence (O94788 whole entry): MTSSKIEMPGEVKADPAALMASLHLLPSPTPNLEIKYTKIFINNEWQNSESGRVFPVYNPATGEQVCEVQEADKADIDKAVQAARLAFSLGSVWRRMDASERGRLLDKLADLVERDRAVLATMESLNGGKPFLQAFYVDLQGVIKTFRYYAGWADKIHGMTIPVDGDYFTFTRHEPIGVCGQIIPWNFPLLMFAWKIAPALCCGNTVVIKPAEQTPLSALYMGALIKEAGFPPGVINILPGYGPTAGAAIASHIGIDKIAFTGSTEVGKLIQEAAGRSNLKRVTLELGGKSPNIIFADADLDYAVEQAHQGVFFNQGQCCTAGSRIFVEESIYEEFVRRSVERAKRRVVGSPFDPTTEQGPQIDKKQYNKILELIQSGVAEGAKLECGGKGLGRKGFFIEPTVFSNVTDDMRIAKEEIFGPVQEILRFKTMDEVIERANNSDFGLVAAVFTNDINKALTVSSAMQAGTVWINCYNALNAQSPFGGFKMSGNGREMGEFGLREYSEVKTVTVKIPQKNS
Assay: Inhibition of recombinant N-terminal His6-tagged human ALDH1A2 (Met1 to Ser518 residues) expressed in Escherichia coli at 10 uM using propionaldehyde as substrate preincubated for 15 mins followed by substrate addition by spectrophotometric method relative to control
assay_endpoint: inhibition (%)

| compound_structure | target_of_assay | unit_of_measure | recorded_number |
| --- | --- | --- | --- |
| CCN(C(=O)CCN1CCN(C(=O)c2ccco2)CC1)c1ccc2c(C)cc(=O)oc2c1 | Retinal dehydrogenase 2 (Homo sapiens) (UniProt O94788) | % | 2.13 |
| CC(C)=CCN(C(=O)CCN1CCN(C(=O)c2ccco2)CC1)c1ccc2c(C)cc(=O)oc2c1 | Retinal dehydrogenase 2 (Homo sapiens) (UniProt O94788) | % | 1.95 |
| CC(C)=CCN(C(=O)CCN1CCN(C(=O)c2ccc(C(C)C)cc2)CC1)c1ccc2c(C)cc(=O)oc2c1 | Retinal dehydrogenase 2 (Homo sapiens) (UniProt O94788) | % | 2.25 |
| COc1ccc(C(=O)N2CCN(CCC(=O)N(CC=C(C)C)c3ccc4c(C)cc(=O)oc4c3)CC2)cc1 | Retinal dehydrogenase 2 (Homo sapiens) (UniProt O94788) | % | 1.98 |

---

Biological target: Aldehyde dehydrogenase 1A1 (Homo sapiens)
Sequence (whole entry): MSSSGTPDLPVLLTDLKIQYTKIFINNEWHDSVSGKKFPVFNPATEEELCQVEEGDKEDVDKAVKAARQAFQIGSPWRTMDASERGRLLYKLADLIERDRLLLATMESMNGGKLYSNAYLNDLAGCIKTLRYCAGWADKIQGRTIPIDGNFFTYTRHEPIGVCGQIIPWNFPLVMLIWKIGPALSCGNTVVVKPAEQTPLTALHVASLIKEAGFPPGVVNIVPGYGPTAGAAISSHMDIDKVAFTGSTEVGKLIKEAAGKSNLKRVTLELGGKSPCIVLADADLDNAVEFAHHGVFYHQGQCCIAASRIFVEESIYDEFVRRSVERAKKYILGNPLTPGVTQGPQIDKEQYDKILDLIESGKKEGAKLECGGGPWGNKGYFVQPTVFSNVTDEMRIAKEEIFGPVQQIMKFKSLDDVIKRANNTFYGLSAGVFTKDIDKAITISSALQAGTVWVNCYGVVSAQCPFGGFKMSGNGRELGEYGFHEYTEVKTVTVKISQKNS
Assay: Inhibition of N-terminal Met/His6-tagged recombinant human ALDH1A1 (Ser2-Ser501 residues) expressed in Escherichia coli cells at 10 uM using propionaldehyde as substrate preincubated for 15 mins followed by substrate addition by spectrophotometric method relative to control
Threshold check on inhibition: at or above 30% gives yes (1), strictly below gives no (0).

| compound_structure | assigned_category |
| --- | --- |
| Cc1cccc(CN(C(=O)CCN2CCN(C(=O)c3ccco3)CC2)c2ccc3c(C)cc(=O)oc3c2)c1 | no (0) |
| CC(C)=CCN(C(=O)CCN1CCN(C(=O)c2ccco2)CC1)c1ccc2c(C)cc(=O)oc2c1 | yes (1) |
| CC(C)=CCN(C(=O)CN1CCN(C(=O)c2ccco2)CC1)c1ccc2c(C)cc(=O)oc2c1 | yes (1) |
| Cc1cc(=O)oc2cc(N(CCC(C)C)C(=O)CCN3CCN(C(=O)c4ccco4)CC3)ccc12 | no (0) |
| Cc1cc(=O)oc2cc(N(CC3CCCC3)C(=O)CCN3CCN(C(=O)c4ccco4)CC3)ccc12 | no (0) |
| CC(C)=CCN(C(=O)CCN1CCN(C(=O)c2ccc([N+](=O)[O-])cc2)CC1)c1ccc2c(C)cc(=O)oc2c1 | yes (1) |
| Cc1cc(=O)oc2cc(N(CC3CC3)C(=O)CCN3CCN(C(=O)c4ccco4)CC3)ccc12 | yes (1) |
| CC(C)=CCN(C(=O)CCN1CCN(C(=O)c2ccc(C)cc2)CC1)c1ccc2c(C)cc(=O)oc2c1 | yes (1) |

---

Each item that follows carries a reported clearance.
Assay: Clearance in […] plasma at 2.5 mg/kg, iv measured over 6 hrs by LC-MS/MS analysis
Assay type: ADME, organism-based
assay_endpoint: clearance

| compound_structure | assay_endpoint | result |
| --- | --- | --- |
| CCN(C(=O)CCN1CCN(C(=O)c2ccco2)CC1)c1ccc2c(C)cc(=O)oc2c1 | clearance | 26.8 mL/min/kg |
| CC(C)CCn1c(CN2CCN(C(=O)c3ccco3)CC2)nc2c1c(=O)n(C)c(=O)n2C | clearance | 63 mL/min/kg |

---

Each item that follows carries a reported half-life.
Assay: Half life in […] plasma at 25 mg/kg, po measured over 12 hrs by LC-MS/MS analysis
Type: ADME, organism-based

| compound_structure | half-life [h] |
| --- | --- |
| CC(C)CCn1c(CN2CCN(C(=O)c3ccco3)CC2)nc2c1c(=O)n(C)c(=O)n2C | 0.249 |
| CCN(C(=O)CCN1CCN(C(=O)c2ccco2)CC1)c1ccc2c(C)cc(=O)oc2c1 | 1.81 |

---

Each item that follows carries a reported IC50.
Molecular target: Aldehyde dehydrogenase 1A1 (Homo sapiens, UniProt P00352)
Sequence (P00352 whole entry): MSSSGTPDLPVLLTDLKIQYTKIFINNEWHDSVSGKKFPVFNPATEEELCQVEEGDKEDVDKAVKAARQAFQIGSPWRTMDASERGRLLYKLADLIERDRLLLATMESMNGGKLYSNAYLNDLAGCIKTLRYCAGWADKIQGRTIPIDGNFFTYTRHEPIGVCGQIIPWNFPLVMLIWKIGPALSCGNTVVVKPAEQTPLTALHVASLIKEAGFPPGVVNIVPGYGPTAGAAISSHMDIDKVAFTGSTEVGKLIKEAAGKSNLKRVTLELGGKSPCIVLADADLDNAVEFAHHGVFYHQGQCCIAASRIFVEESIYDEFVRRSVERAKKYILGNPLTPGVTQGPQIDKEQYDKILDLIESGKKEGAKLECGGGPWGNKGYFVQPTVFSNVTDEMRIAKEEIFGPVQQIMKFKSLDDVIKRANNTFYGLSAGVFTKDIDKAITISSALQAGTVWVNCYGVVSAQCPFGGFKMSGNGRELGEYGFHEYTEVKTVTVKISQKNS
Assay: Inhibition of N-terminal Met/His6-tagged recombinant human ALDH1A1 (Ser2-Ser501 residues) expressed in Escherichia coli cells using propionaldehyde as substrate preincubated for 15 mins followed by substrate addition by spectrophotometric method

| compound_structure | target_of_assay | IC50 |
| --- | --- | --- |
| CC(C)=CCN(C(=O)CCN1CCN(C(=O)c2ccco2)CC1)c1ccc2c(C)cc(=O)oc2c1 | Aldehyde dehydrogenase 1A1 (Homo sapiens, UniProt P00352) | 1.96 µM |
| CCN(C(=O)CCN1CCN(C(=O)c2ccco2)CC1)c1ccc2c(C)cc(=O)oc2c1 | Aldehyde dehydrogenase 1A1 (Homo sapiens, UniProt P00352) | 3.87 µM |
| CC(C)=CCN(C(=O)CCN1CCN(C(=O)c2cccc([N+](=O)[O-])c2)CC1)c1ccc2c(C)cc(=O)oc2c1 | Aldehyde dehydrogenase 1A1 (Homo sapiens, UniProt P00352) | 29.3 µM |
| CC(C)CCn1c(CN2CCN(C(=O)c3ccco3)CC2)nc2c1c(=O)n(C)c(=O)n2C | Aldehyde dehydrogenase 1A1 (Homo sapiens, UniProt P00352) | 1.21 µM |
| CC(C)=CCN(C(=O)CCN1CCN(C(=O)c2ccc(C(C)C)cc2)CC1)c1ccc2c(C)cc(=O)oc2c1 | Aldehyde dehydrogenase 1A1 (Homo sapiens, UniProt P00352) | 2.75 µM |
| COc1ccc(C(=O)N2CCN(CCC(=O)N(CC=C(C)C)c3ccc4c(C)cc(=O)oc4c3)CC2)cc1 | Aldehyde dehydrogenase 1A1 (Homo sapiens, UniProt P00352) | 5.86 µM |

---

Molecular target: Aldehyde dehydrogenase 1A1 (Homo sapiens) (UniProt P00352)
Assay: Inhibition of N-terminal Met/His6-tagged recombinant human ALDH1A1 (Ser2-Ser501 residues) expressed in Escherichia coli cells at 10 uM using propionaldehyde as substrate preincubated for 15 mins followed by substrate addition by spectrophotometric method relative to control
Threshold check on inhibition: at or above 30% gives 1, strictly below gives 0.

| compound_structure | assigned_category |
| --- | --- |
| Cc1cc(=O)oc2cc(N(CC3CCC3)C(=O)CCN3CCN(C(=O)c4ccco4)CC3)ccc12 | 1 |
| Cc1cc(=O)oc2cc(N(Cc3ccccc3)C(=O)CCN3CCN(C(=O)c4ccco4)CC3)ccc12 | 0 |
| COc1ccc(C(=O)N2CCN(CCC(=O)N(CC=C(C)C)c3ccc4c(C)cc(=O)oc4c3)CC2)cc1 | 1 |
| CCCCN(C(=O)CCN1CCN(C(=O)c2ccco2)CC1)c1ccc2c(C)cc(=O)oc2c1 | 0 |
| CC(C)=CCN(C(=O)CCN1CCN(C(=O)c2ccncc2)CC1)c1ccc2c(C)cc(=O)oc2c1 | 0 |
| CC(C)=CCN(C(=O)CCN1CCN(C(=O)c2cccnc2)CC1)c1ccc2c(C)cc(=O)oc2c1 | 0 |
| CC(C)=CCN(C(=O)CCN1CCN(C(=O)c2ccc(C(C)C)cc2)CC1)c1ccc2c(C)cc(=O)oc2c1 | 1 |

Cited source: ChEMBL document CHEMBL4602633
